meta.source: patent US20250027068A1

Task for the reader: assign each of the following binders its reported Enzyme Activity Endpoint Assay (purified): IgG.
system: pooled human IgG (human); also: test concentration or dose not given here
protocol-text: cell-based or functional assay
All answers are understood in ng/µL, so give the number only.

The binder PRT-203 (enzyme) MEVVEVWPYGQNPNGKTEILSQTEDSESLQRLRDIEDFQAEKKKQNVVYTKWLDGVDVKDHDFRKIKDGNIEYYATPLLNGRGFYDINKDFNRDSDKCAAAVAANMFHYWLDRNRDNVDRFLRQNPEKHGIIELPDGQLKLSDFLNTYESDDGYRDKSKLFDFISNNFNGPVWTDKLLDNYINGYAYNYKYGRTIEDPTKNTSKINFFKEVFNEKILTNNHSIRNQNEFSVLLSEALYTGKAIGLSYGPAGLRHSLGHIISVWGADLDADGNVVAIYVTDSDDKKLTIGDERVGLKRYKISTDDEGRARLTAYEETHNTGGQIRGLWTLDTGKQAWADYFDKTEQTGTDQAEQLEHHHHHH showed Enzyme Activity Endpoint Assay (purified): IgG equal to 2130

Lab note: PRT-222 (enzyme) MEVVEVWPYGQNPNGKTEILSQTEDSESLQRLRDIEDFQAEKKMQNVVYTKWLDGVDVKDHDFRKIVDGNIAYYATPLLNGRGFYDINKDFNRDSDKCAAAVAANMFHYWLDINRDNVDRFLRQNPEKHGIIELPDGQLKLSDFLNTYESDHGYRDKSKLFDFISNNFNGPVWTDKLLDNYINGYAYNYKYGRTIEDPTKNTSKINFFKEVFNEKILTNNHSIRNQNEFSVLLSEALYTGKAIGLSYGPAGLRHSLGHIISVWGADLDADGNVVAIYVTDSDDKKLTIGDERVGLKRYKISTDDEGRLRLTAYEETHNTGGQIRGLWTLDTGKYAWADYFDKTEQTGTDQAEQLEHHHHHH gave Enzyme Activity Endpoint Assay (purified): IgG of 1550

The reported Enzyme Activity Endpoint Assay (purified): IgG of the binder PRT-198 (enzyme) MEVVEVWPYGQNPNGKTEILSQTEDSESLQRLRDIEDFQAEKKKQGVVYTKWLDGVDVKDHDFRKIVDGNIAYYATPLLNGRGFYDINKDFNRDSDKCAAAVAANMFHYWLDINRDNVDRFLRQNPEKHGIIELPDGQLKLSDFLNTYESDHGYRDKSKLFDFISNNFNGPVWTDKLLDNYINGYAYNYKYGRTIEDPTKNTSKINFFKEVFNEKILTNNHSIRNQNEFSDLLSEALYTGKAIGLSYGPAGLRHSLGHIISVWGADLDADGNVVAIYVTDSDDKKLTIGDERVGLKRYKISTDDENRLRLTAYEETHNTGGQIRGLYTLDTGKQAWADYFDKTEQTGTDQAEQLEHHHHHH was 2320

Given item PRT-226 (enzyme) MEVVEVWPYGQNPNGKTEILSQTEDSESLQRLRDIEDFQAEKKKQNVVYTKWLDGVDVDDHDFRKIVDGNTEYYATPLLNGRGFYDINKDFNRDSDKCAAAVAANMFHYWLDRNRDNVDRFLRQNPEKHGIIELPDGQLKLSDFLNTYESDHGYRDKSKLFDFISNNFNGPVWTNKLLDNYINGYGYNYKYGRTIEDPTKNTSKINFFKEVFNEKILTNNHSIRNQNEFSVLLSEALYTGKAIGLSYGPAGLRHSLGHIISVWGADLDADGNVVAIYVTDSDDKKLTIGDERVGLKRYKISTDDEGRARLTAYEETDNTGGQIRGLWTLDTGKQAWADYFDKTEQTGTDQAEQLEHHHHHH , the value recorded as its Enzyme Activity Endpoint Assay (purified): IgG is 1960
